# tested-on: T1, cynomolgus SIRP-α D1 domain (cyno1) (cynomolgus monkey, UniProt Q5TFQ8 30-148 (human entry), limits assumed)
# T1 chain: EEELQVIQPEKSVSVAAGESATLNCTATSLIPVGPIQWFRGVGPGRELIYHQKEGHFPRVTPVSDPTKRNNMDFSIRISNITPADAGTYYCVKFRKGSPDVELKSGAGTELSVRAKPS
# experiment-summary: SPR, Langmuir fit
Please enter MET where koff is greater than or equal to 0.0002 s⁻¹, and NOT MET where it is lower.

Field: example entries. Status: answers known.
S60 (scFv, V domains shown, also called clone 60) VH: DVQLVDSGGGVVRPGESLRLSCAASGFTFSSYAMSWVRQAPGKGLEWLAGISAGGSDTYYIDSVKGRFTISRDNSKNSLYLQMNSLTAEDTAVYYCARETWNHLFDYWGLGTLVTVSS VL: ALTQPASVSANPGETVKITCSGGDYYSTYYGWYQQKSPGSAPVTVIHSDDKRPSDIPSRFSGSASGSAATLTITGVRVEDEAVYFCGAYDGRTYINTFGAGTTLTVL = NOT MET
S30 (scFv, V domains shown, also called clone 30) VH: DVQLVESGGGVVRPGESLRLSCEASGFTFSSDAMSWVRQAPGKGLEWVSGISSGSSTYYGGSVKGRFTISRDNSKNTLYLQMNSLTAEDTAVYYCARETWNHLFDYWGLGTLVTVSS VL: ALTQPASVSASPGETVEITCSGGSDSSYYYGWYQQKSPGSAPVTVIYSDNKRPSNIPSRFSGSASGSTATLTITGVRVEDEAVYYCGGYDYSTYTNPFGAGTTLTVL = MET
S132 (scFv, V domains shown) VH: DVQLVESGGGVVRPGESLRLSCAASGFSFRSYAMNWVRQAPGEGLEWVSRINSGGGGTDYADSVKGRFTISRDNSKNTLYLQMNSLRAEDTAVYYCAKQYDWNSFFDYWGLGALVTVSS VL: ETVLTQSPATLSVSPGERATLSCRASQTVGSKLAWHQQKPGQAPRLLIYDASNRATGIPDRFSGSGSGTDFTLTISSPQTEDSAVYYCQQYYYWPPYRFGGGTKVEIK = NOT MET
S214 (scFv, V domains shown) VH: DVQLVESEGGVVRPGESLRLSCEASGFTFRNSYMTWVRQAPGEGLEWVSTISDTGDTAYYADSVKGRFTISRDNSKNSLYLQMNSLRAEDTAIYYCAKSWIWWTFFDYWGLGTLVTVSS VL: ALTQPASVSANLGGTVEITCSGGNSNHYGWYQQKSPGSAPVTLIYADTNRPSNIPSRFSGSTSGSTSTLTITGVQAEDEAVYYCGGSSTGDGIFGAGTTLTVL = MET
S70 (scFv, V domains shown, also called clone 70) VH: DVQLVESGGGVVRPGESLRLSCAASGFTFSSYAMSWVRQAPGKGLEWLAGISAGGSDAYYIDSVKGRFTISRDNSKNSLYLQMNSLTAEDTAVYYCARETWNHLFDYWGLGTLVTVSS VL: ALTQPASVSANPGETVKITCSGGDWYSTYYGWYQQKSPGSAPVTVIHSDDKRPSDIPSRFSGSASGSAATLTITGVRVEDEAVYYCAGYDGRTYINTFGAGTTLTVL = MET

Consider the record given below.
Entry S66 (scFv, V domains shown, also called clone 66; scFv-Fc form of AB66) VH: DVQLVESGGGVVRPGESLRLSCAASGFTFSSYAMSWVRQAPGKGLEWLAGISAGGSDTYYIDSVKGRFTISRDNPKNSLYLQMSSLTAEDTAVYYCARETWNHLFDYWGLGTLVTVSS VL: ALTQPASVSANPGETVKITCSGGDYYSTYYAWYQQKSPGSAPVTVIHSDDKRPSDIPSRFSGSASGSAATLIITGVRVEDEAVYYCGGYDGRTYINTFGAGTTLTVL : is its koff no less than 0.0002 s⁻¹?
MET

Numbers sourced from patent US20210363269A1.
